Sourced from patent US20050159599A1

Tested on: Plutella xylostella
measurement_description: Insecticidal effect for Plutella xylostella by immersion treatment of host crop root (Test Example 3)
Type: in vivo
assay_setup: Plutella xylostella, 120 h; 25 ppm; cabbage root immersed 5 days; ten second-instar larvae on stem and leaves; counted on the fifth day, 24° C.; read-out: rate of dead pests (%)
Give measured pest or weed control at 25 ppm for each item. Keep answers brief.
Answer with a number only, understood to be in %.

Recorded pest or weed control at 25 ppm for CN1CN(C(=O)c2c(F)cccc2F)C(=O)N(c2ccc(SC(F)F)cc2F)C1 with Plutella xylostella, please?
100

Recorded pest or weed control at 25 ppm for CN1CN(C(=O)c2c(F)cccc2F)C(=O)N(c2ccc(SC(F)(F)F)cc2F)C1 with Plutella xylostella, please?
90

Recorded pest or weed control at 25 ppm for O=C(c1c(F)cccc1F)N1COCN(c2ccc([S+]([O-])C(F)F)cc2F)C1=O (stereo not drawn) with Plutella xylostella, please?
100
